# tested_system: UniProt:P10275
# Sequence (P10275 whole entry): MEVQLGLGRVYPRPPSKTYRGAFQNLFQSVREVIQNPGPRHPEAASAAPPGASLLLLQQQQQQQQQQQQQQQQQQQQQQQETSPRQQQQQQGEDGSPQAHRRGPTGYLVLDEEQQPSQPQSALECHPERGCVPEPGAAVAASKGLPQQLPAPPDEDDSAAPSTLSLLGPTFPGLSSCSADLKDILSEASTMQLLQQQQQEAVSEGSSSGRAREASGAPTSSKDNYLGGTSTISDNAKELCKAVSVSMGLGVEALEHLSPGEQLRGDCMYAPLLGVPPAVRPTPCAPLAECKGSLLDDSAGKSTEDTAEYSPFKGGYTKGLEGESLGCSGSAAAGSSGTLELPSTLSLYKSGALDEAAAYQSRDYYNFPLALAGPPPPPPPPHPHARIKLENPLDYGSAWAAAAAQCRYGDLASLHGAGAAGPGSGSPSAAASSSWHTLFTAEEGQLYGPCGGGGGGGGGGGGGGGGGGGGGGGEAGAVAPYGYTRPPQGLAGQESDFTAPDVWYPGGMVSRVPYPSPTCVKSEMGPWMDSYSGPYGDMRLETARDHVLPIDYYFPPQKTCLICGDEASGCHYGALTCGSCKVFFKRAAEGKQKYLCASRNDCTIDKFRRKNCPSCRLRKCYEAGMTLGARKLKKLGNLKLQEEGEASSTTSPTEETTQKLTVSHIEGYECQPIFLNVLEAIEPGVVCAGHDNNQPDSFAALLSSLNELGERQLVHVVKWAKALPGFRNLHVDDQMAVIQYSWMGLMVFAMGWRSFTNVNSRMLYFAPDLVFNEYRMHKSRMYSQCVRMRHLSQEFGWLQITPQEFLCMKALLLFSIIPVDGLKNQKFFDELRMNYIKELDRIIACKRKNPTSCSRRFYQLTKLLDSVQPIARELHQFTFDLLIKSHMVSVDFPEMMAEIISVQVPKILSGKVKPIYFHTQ
pIC50: −log10 of the molar value.
Below: a set of entries, each annotated with reported pIC50.

compound: O=c1cc(C(F)(F)F)c2c3c(ccc2[nH]1)-c1c(O)cccc1OC3
tested_system: UniProt:P10275
pIC50: 8.96

compound: COc1ccc2oc(=O)c3c(ccc4[nH]c(=O)cc(C)c43)c2c1
tested_system: UniProt:P10275
pIC50: 9.10

compound: COc1c(C(=O)OC(F)(F)F)ccc2oc(=O)c3c(ccc4[nH]c(=O)cc(C)c43)c12
tested_system: UniProt:P10275
pIC50: 9.70

compound: COc1cccc2c1-c1ccc3[nH]c(=O)cc(C(F)(F)F)c3c1OC2
tested_system: UniProt:P10275
pIC50: 6.32

compound: COc1cccc2oc(=O)c3c(ccc4[nH]c(=O)cc(C)c43)c12
tested_system: UniProt:P10275
pIC50: 7.68

compound: COc1cccc2c1-c1ccc3[nH]c(=O)cc(C)c3c1CO2
tested_system: UniProt:P10275
pIC50: 7.92

compound: COc1c(OC(C)C)ccc2oc(=O)c3c(ccc4[nH]c(=O)cc(C)c43)c12
tested_system: UniProt:P10275
pIC50: 8.55

compound: COc1cccc2c1-c1ccc3[nH]c(=O)cc(C)c3c1C(O)O2 (stereo not given)
tested_system: UniProt:P10275
pIC50: 7.30

compound: Cc1cc(=O)[nH]c2ccc3c4c(C(=O)OC(C)(C)C)cccc4oc(=O)c3c12
tested_system: UniProt:P10275
pIC50: 8.72

compound: COc1c(O)ccc2oc(=O)c3c(ccc4[nH]c(=O)cc(C)c43)c12
tested_system: UniProt:P10275
pIC50: 9.70
